Molecular target: mGluR5 receptors (Rattus norvegicus, UniProt P31424)
Construct: Primary astrocyte cultures are prepared from cortices of newborn rats; endogenous in cells
Sequence (P31424 21-1203): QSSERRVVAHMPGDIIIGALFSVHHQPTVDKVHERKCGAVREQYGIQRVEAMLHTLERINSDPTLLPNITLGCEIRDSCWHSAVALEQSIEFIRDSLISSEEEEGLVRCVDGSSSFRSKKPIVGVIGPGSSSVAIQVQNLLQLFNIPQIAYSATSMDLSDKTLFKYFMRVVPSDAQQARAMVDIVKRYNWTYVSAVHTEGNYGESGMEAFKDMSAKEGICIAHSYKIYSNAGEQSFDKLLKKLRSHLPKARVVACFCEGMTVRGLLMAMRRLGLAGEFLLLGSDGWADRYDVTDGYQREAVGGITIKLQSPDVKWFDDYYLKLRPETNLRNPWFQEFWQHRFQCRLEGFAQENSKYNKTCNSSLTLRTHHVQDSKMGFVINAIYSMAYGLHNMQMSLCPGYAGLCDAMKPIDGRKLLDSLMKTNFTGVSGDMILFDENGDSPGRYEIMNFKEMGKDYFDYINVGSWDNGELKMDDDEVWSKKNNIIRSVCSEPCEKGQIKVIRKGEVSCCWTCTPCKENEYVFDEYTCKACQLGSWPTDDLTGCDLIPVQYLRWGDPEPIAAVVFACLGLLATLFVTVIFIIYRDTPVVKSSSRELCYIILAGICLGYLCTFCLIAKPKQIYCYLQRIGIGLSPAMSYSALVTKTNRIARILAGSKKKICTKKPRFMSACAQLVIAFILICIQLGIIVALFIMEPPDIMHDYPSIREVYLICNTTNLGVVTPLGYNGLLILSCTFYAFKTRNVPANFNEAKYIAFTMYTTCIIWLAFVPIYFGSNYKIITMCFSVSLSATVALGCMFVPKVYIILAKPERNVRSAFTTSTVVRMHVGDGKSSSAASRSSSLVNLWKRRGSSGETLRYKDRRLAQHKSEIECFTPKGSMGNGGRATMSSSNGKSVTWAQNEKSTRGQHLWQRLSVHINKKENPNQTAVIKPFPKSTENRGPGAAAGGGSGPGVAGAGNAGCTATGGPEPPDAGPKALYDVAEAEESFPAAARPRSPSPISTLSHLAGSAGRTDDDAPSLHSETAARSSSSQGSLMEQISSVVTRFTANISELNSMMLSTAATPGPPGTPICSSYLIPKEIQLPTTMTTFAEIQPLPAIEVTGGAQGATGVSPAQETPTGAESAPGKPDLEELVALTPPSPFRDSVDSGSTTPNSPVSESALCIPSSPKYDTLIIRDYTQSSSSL
Assay: Cytosolic calcium studies with cultured rat astrocytes
pEC50: −log10 of the molar value.
Value type: pEC50

Compound	Numeric value
O=C(c1nc2ncc(C#Cc3ccccc3)cc2o1)N1CCCCC1	7.22
C(#Cc1cnc2cccnc2c1)c1ccccc1 [Example 41, 3-Phenylethynyl-[1,5]naphthyridine]	8.30
C(#Cc1cnc2cccnc2c1)c1ccncc1	6.51
Fc1ccccc1C#Cc1cnc2cccnc2c1	7.62
Fc1cccc(C#Cc2cnc3nccnc3c2)c1	7.27

[1] Fc1ccc(C#Cc2cnc3nccnc3c2)cc1
[2] Fc1ccc(C#Cc2cnc3ncsc3c2)c(F)c1
[ask] Two entries are listed, 1 and 2 . Which one carries the higher pEC50? # reply format: chosen label
[reply] 2

[a] Fc1cc(F)cc(C#Cc2cnc3ncsc3c2)c1
[b] Cc1cccc(C#Cc2cnc3cccnc3c2)c1 [Example 95, 3-(m-Tolylethynyl)-[1,5]naphthyridine]
[ask] // compare: a vs b , metric pEC50, want the smaller # respond with the chosen item's label
[reply] a
